Molecular target: EBOV GP ectodomain residues 1-636 (GPec) (Zaire ebolavirus, strain  …, UniProt Q05320)

binder	binding result
5.6.c2455 (antibody, V domains shown) VH: QVQLVESGGGVVQPGRSLRLSCAASGFTFSSYAIHWVRQAPGKGLEWVAVISDDGNHKYYADSVKGRFTISRDNSKNTLFLQMNSLRPEDTAVYYCAKNRLVFGVIWFYDMDVWGQGTTVTVSS VL: QSVLTQPPSVSAAPGQKVTISCSGSSSNIGNNYVSWYQQLPGSAPKLLIYDNNKRPSGIPDRFSGSKSGTSATLDITGLQTGDEADYYCGTWDTSLRGVFGGGTKLTVL	binds
5.6.c3169 (antibody, V domains shown) VH: QVQLVQSGTEVKKPGASVRVSCKSSGYTFTNYGINWVRQAPGQGLEWLGWISTYNDNINYAQKFQGRVTMTTDTSTSTAYMELRSLRSDDTAIYYCAKDSSAYWDLLFYGMDVWGQGTTVTVSS VL: DIQLTQSPSFVSASVGDRVTITCRASQGISSSLAWYQQKPGKAPNLLIYAASALQSGVPSRFSGSGSGTDFTLTISSLQPEDFATYFCQQLNSYPYTFGQGTKLEIK	binds
5.6.c3057 (antibody, V domains shown) VH: QVQLVESGGGVVQSGRSLRLSCAASGFTLSSYGMHWVRQAPGKGLEWVATVSFDGNNEYYADSVKGRFTISRDKSKNTLYLQMNSLRPEDTAMYYCAKEPLPARGDFWSGHYSPPSYYYYGMDVWGQGTTVTVSS VL: QTVVTQEPSFSVSPGGTVTLTCGLRSGSVSTNYYPSWYQQTPGQPPRTLIYNTNTRSFGVPDRFSGSILGNRAALTITGAQADDESDYYCLLYMDSGIWVFGGGTKLTVL	binds

The reported measurements were obtained from paper PMC6908968.
